Reported MIC values follow for various compounds
# Tested on: S. aureus VISA/HIP5827
# Assay: MIC, broth microdilution, vancomycin-intermediate S. aureus VISA HIP5827
# Type: cell-based, Staphylococcus aureus
# Applied Conditions: Staphylococcus aureus VISA/HIP5827; read-out: MIC
Report the figure in µM without appending any unit label.

* CN[C@H](CC(C)C)C(=O)N[C@H]1C(=O)N[C@@H](CC(N)=O)C(=O)N[C@H]2C(=O)N[C@H]3C(=O)N[C@H](C(=O)N[C@H](C(=O)NCC(=O)Nc4ccc(Oc5ccccc5)cc4)c4cc(O)cc(O)c4-c4cc3ccc4O)[C@H](O)c3ccc(c(Cl)c3)Oc3cc2cc(c3O[C@@H]2O[C@H](CO)[C@@H](O)[C@H](O)[C@H]2O[C@H]2C[C@](C)(N)[C@H](O)[C@H](C)O2)Oc2ccc(cc2Cl)[C@H]1O | 0.78

Problem: Report measured MIC; entry is CNC(CC(C)C)C(=O)NC1C(=O)NC(CC(N)=O)C(=O)NC2C(=O)NC3C(=O)NC(C(=O)NC(C(=O)NCCCNC(=O)c4ccc(C(F)(F)F)cc4)c4cc(O)cc(O)c4-c4cc3ccc4O)C(O)c3ccc(c(Cl)c3)Oc3cc2cc(c3OC2OC(CO)C(O)C(O)C2OC2CC(C)(N)C(O)C(C)O2)Oc2ccc(cc2Cl)C1O (stereo not drawn)
Result: 0.78

Problem: Return reported MIC. Input compound: CNC(CC(C)C)C(=O)NC1C(=O)NC(CC(N)=O)C(=O)NC2C(=O)NC3C(=O)NC(C(=O)NC(C(=O)NCC(=O)Nc4ccc(-c5cn(-c6ccc(C)cc6)nn5)cc4)c4cc(O)cc(O)c4-c4cc3ccc4O)C(O)c3ccc(c(Cl)c3)Oc3cc2cc(c3OC2OC(CO)C(O)C(O)C2OC2CC(C)(N)C(O)C(C)O2)Oc2ccc(cc2Cl)C1O (stereo not drawn)
Result: 0.78

---

# Tested on: E. faecalis VRE 53
# Assay: MIC, broth microdilution, vancomycin-resistant E. faecalis VRE 53 (VanA)
# Format: cell-based, Enterococcus faecalis
# Applied Conditions: Enterococcus faecalis VRE 53 (vancomycin-resistant); read-out: MIC
# MIC per entry
Give just the number in µM; leave the unit off.

* CN[C@H](CC(C)C)C(=O)N[C@H]1C(=O)N[C@@H](CC(N)=O)C(=O)N[C@H]2C(=O)N[C@H]3C(=O)N[C@H](C(=O)N[C@H](C(=O)NCC(=O)Nc4ccc(Cl)cn4)c4cc(O)cc(O)c4-c4cc3ccc4O)[C@H](O)c3ccc(c(Cl)c3)Oc3cc2cc(c3O[C@@H]2O[C@H](CO)[C@@H](O)[C@H](O)[C@H]2O[C@H]2C[C@](C)(N)[C@H](O)[C@H](C)O2)Oc2ccc(cc2Cl)[C@H]1O [Vanc-44] | 50

Problem: Fill in MIC for CNC(CC(C)C)C(=O)NC1C(=O)NC(CC(N)=O)C(=O)NC2C(=O)NC3C(=O)NC(C(=O)NC(C(=O)NCCCNC(=O)c4cc5cc(F)ccc5[nH]4)c4cc(O)cc(O)c4-c4cc3ccc4O)C(O)c3ccc(c(Cl)c3)Oc3cc2cc(c3OC2OC(CO)C(O)C(O)C2OC2CC(C)(N)C(O)C(C)O2)Oc2ccc(cc2Cl)C1O (centres unmarked) [Vanc-45] tested with E. faecalis VRE 53.
Result: 25

---

This section presents compounds with their documented MIC-fold improvement vs. vancomycin values.
# Tested on: MRSA KS1
# Assay: MIC, broth microdilution, MRSA KS1
# Assay type: cell-based, Staphylococcus aureus
# Applied Conditions: MRSA KS1; ratio of MIC of vancomycin and MIC of analogue
A bare number is all that is needed in reply.

Take a look at these entries with their results.
* CNC(CC(C)C)C(=O)NC1C(=O)NC(CC(N)=O)C(=O)NC2C(=O)NC3C(=O)NC(C(=O)NC(C(=O)NCCCNC(=O)c4ccc5cc(OC)ccc5c4)c4cc(O)cc(O)c4-c4cc3ccc4O)C(O)c3ccc(c(Cl)c3)Oc3cc2cc(c3OC2OC(CO)C(O)C(O)C2OC2CC(C)(N)C(O)C(C)O2)Oc2ccc(cc2Cl)C1O (stereo not drawn) [Vanc-29] | 2
* CN[C@H](CC(C)C)C(=O)N[C@H]1C(=O)N[C@@H](CC(N)=O)C(=O)N[C@H]2C(=O)N[C@H]3C(=O)N[C@H](C(=O)N[C@H](C(=O)NCC(=O)Nc4ccc(C)cc4)c4cc(O)cc(O)c4-c4cc3ccc4O)[C@H](O)c3ccc(c(Cl)c3)Oc3cc2cc(c3O[C@@H]2O[C@H](CO)[C@@H](O)[C@H](O)[C@H]2O[C@H]2C[C@](C)(N)[C@H](O)[C@H](C)O2)Oc2ccc(cc2Cl)[C@H]1O [Vanc-4] | 2
* CN[C@H](CC(C)C)C(=O)N[C@H]1C(=O)N[C@@H](CC(N)=O)C(=O)N[C@H]2C(=O)N[C@H]3C(=O)N[C@H](C(=O)N[C@H](C(=O)NCC(=O)Nc4ccc(NS(=O)(=O)c5ccc(Cl)cc5Cl)cc4)c4cc(O)cc(O)c4-c4cc3ccc4O)[C@H](O)c3ccc(c(Cl)c3)Oc3cc2cc(c3O[C@@H]2O[C@H](CO)[C@@H](O)[C@H](O)[C@H]2O[C@H]2C[C@](C)(N)[C@H](O)[C@H](C)O2)Oc2ccc(cc2Cl)[C@H]1O [Vanc-61] | 2
* CNC(CC(C)C)C(=O)NC1C(=O)NC(CC(N)=O)C(=O)NC2C(=O)NC3C(=O)NC(C(=O)NC(C(=O)NCCCNC(=O)c4ccc5cc(NS(=O)(=O)c6ccc(C(C)C)cc6)ccc5c4)c4cc(O)cc(O)c4-c4cc3ccc4O)C(O)c3ccc(c(Cl)c3)Oc3cc2cc(c3OC2OC(CO)C(O)C(O)C2OC2CC(C)(N)C(O)C(C)O2)Oc2ccc(cc2Cl)C1O (stereo not drawn) [Vanc-66] | 1
* CNC(CC(C)C)C(=O)NC1C(=O)NC(CC(N)=O)C(=O)NC2C(=O)NC3C(=O)NC(C(=O)NC(C(=O)NCCCNC(=O)c4ccc5ccccc5n4)c4cc(O)cc(O)c4-c4cc3ccc4O)C(O)c3ccc(c(Cl)c3)Oc3cc2cc(c3OC2OC(CO)C(O)C(O)C2OC2CC(C)(N)C(O)C(C)O2)Oc2ccc(cc2Cl)C1O (stereo not drawn) [Vanc-27] | 2

Problem: Output measured MIC-fold improvement vs. vancomycin for this item: CNC(CC(C)C)C(=O)NC1C(=O)NC(CC(N)=O)C(=O)NC2C(=O)NC3C(=O)NC(C(=O)NC(C(=O)NCCCNC(=O)c4ccc(C(F)(F)F)cc4)c4cc(O)cc(O)c4-c4cc3ccc4O)C(O)c3ccc(c(Cl)c3)Oc3cc2cc(c3OC2OC(CO)C(O)C(O)C2OC2CC(C)(N)C(O)C(C)O2)Oc2ccc(cc2Cl)C1O (stereo not drawn) [Vanc-32]
Result: 2
